# assaySystem: UniProt P42338
# Sequence (P42338 whole entry, looked up): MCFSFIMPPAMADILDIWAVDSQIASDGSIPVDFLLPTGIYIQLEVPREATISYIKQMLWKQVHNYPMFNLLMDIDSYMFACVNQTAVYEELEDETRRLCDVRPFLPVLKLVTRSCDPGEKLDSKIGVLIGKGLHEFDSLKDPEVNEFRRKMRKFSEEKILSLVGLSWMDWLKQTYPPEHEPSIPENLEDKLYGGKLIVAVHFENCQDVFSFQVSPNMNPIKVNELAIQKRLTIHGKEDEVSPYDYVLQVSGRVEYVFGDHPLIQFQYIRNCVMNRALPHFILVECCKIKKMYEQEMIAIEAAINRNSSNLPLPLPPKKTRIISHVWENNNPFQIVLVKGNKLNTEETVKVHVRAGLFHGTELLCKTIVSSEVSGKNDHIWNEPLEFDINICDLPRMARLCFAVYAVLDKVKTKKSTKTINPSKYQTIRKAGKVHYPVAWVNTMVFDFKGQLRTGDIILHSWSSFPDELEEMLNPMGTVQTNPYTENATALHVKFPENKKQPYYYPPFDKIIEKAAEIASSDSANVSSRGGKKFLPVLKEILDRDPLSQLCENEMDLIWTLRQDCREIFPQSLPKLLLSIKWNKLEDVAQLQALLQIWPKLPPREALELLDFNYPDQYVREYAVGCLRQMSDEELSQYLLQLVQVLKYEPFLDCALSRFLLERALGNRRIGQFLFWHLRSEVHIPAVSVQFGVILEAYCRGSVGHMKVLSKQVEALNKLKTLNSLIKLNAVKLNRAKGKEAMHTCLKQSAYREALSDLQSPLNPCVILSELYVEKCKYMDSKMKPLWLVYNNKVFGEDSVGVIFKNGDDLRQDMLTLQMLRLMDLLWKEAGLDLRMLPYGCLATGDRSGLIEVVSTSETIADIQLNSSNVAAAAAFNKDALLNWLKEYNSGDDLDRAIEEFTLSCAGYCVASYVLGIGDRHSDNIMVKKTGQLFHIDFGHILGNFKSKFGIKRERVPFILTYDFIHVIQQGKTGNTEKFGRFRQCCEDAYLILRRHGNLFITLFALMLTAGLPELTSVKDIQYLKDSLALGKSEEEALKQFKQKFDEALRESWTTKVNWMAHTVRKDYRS
Measured IC50, listed per entry for reference.

C[C@H](NC(=O)c1c(N)nn2cccnc12)c1cc2cccc(C#Cc3cnn(C)c3)c2c(=O)n1C1CC1 | 1 to 5 µM
C[C@H](NC(=O)c1c(N)nn2cccnc12)c1cc2cccc(C#Cc3cccnc3)c2c(=O)n1-c1ccccc1 | 5 to 10 µM
C[C@H](NC(=O)c1c(N)nn2cccnc12)c1cc2ccc3ccccc3c2c(=O)n1-c1ccccc1 | 5 to 10 µM
C[C@H](NC(=O)c1c(N)nn2cccnc12)c1cc2cccc(C#CC(C)(C)O)c2c(=O)n1-c1ccccc1 | 5 to 10 µM
CC(=O)N1CCC(C#Cc2cccc3cc([C@H](C)NC(=O)c4c(N)nn5cccnc45)n(-c4ccccc4)c(=O)c23)CC1 | 5 to 10 µM

Q: # return recorded IC50 for input C[C@H](NC(=O)c1c(N)nn2cccnc12)c1cc2cccc(C#CC3CNC3)c2c(=O)n1-c1ccccc1
Result: 5 to 10 µM

Q: Fill in IC50 for record C[C@H](NC(=O)c1c(N)nn2cccnc12)c1cc2cccc(C#Cc3cocn3)c2c(=O)n1-c1ccccc1
Result: 1 to 5 µM

Q: Give IC50 for C[C@H](NC(=O)c1c(N)nn2cccnc12)c1cc2cccc(C#Cc3nccs3)c2c(=O)n1-c1ccccc1
Result: 5 to 10 µM

Q: Return the recorded IC50 value; entry: Cc1ccn2nc(N)c(C(=O)N[C@@H](C)c3cc4cccc(C#Cc5cnn(C)c5)c4c(=O)n3-c3ccccc3)c2n1
Result: 1 to 5 µM

Q: Please report the measured IC50 for Cc1ncc(C#Cc2cccc3cc([C@H](C)NC(=O)c4c(N)nn5cccnc45)n(-c4ccccc4)c(=O)c23)n1C
Result: 5 to 10 µM
